# credit: the supplement of paper PMC9170038

# Tested on: MS2 coat protein
# method: apparent KD of MS2 coat protein; designed switch direction (-1 OFF switch, 1 ON switch): 1; higher = weaker reporter binding
# study_conditions: input ligand: none
Values of apparent KD of MS2 coat protein greater than or equal to 0.04 µM map to T; values below map to F.

INSERT INTO results (input_sequence, target_or_test_system, label_value) VALUES
  ('GCCAUCGCAUGAGGAUAUGGCACCGAAACGGUGCCAGAAGGCAUGUCGAAUGACAUGAGGAUCACCCAUGUAGUAUAGAUGGCA [Mat - Same State NG 1 - JL mod - D92] (Eterna round: R96, puzzle: Same State NG 1)', 'MS2 coat protein', 'T'),
  ('GCUAGGAAAUAAGCCAACAUGAGGAUCACCCAUGUAUGUUGGUAGGAUAUCGUUUGCAAAGCAAACGAGAAGGGCUAACCUAGC [Mat - Same State NG 3 - JL Mod - D70] (Eterna round: R96, puzzle: Same State NG 3)', 'MS2 coat protein', 'T'),
  ('CUUUUUAAUGCAGGAUAUGAUCAACAUGAGGAUCACCCAUGUGGUGUUGUGAGUAAGGAGAGUGAUCAGAAGGGCAUCUUCUCA [SS-NG2-LRO05] (Eterna round: R96, puzzle: Same State NG 2)', 'MS2 coat protein', 'T'),
  ('AAAGGAUGAUUAUACAUGAGGAUCACCCAUGUAAGUUAUACUAAGGAUAUGUGACUUAAUAGUUUACAGAAGGUAGGUUCAUGA [AK SSNG3-V2-2] (Eterna round: R96, puzzle: Same State NG 3)', 'MS2 coat protein', 'T'),
  ('UUUCGAUAGAUAGGAUAUCACCUUACAUGAGGAUCACCCAUGUUGGCCGUGCUGGUUAUUCAUACUGAGAAGGAUCUUGAUGAC [JR_SSNG2_Sub004] (Eterna round: R96, puzzle: Same State NG 2)', 'MS2 coat protein', 'T'),
  ('AUUAUGUAUGCAGGAUAUGAUUAACAUGAGGAUCACCCAUGUGGUGUUGUGAGUAAGGAGAGUGAUCAGAAGGGCAUUUUUUUU [JMF''s solution 64] (Eterna round: R96, puzzle: Same State NG 2)', 'MS2 coat protein', 'T'),
  ('UAAGCAUUCCUAGGAUAUGUAGGAUAUGUACAUGAGGAUCACCCAUGUCUACCAGAGACAGAAGGACAGAAGGAGGAAUGCUUC [pwkr ssNG2 2FMN 1F5s.8] (Eterna round: R96, puzzle: Same State NG 2)', 'MS2 coat protein', 'F'),
  ('UCUUGGUUUUUGCUCGUUUUUUGUGUUGAACAUGAGGAUCACCCAUGUAUUGUACAAUCCAAUUUAAUAAUGGUCCG [JMF 48] (Eterna round: R96, puzzle: Sensor for hsa-mir-208a)', 'MS2 coat protein', 'T'),
  ('UGGCUGGUGCUAGGAUAUGCAUGAGGAAUCCUCGUAGAAGGAGCACGACAUGAGGAUCACCCAUGUAGCCGUCCGUAGACGGCU [salish99_SSNG1_r04_009] (Eterna round: R96, puzzle: Same State NG 1)', 'MS2 coat protein', 'T'),
  ('GGAUCGGAGGCAGGAUAUGGGCUCAGAACAUGAGGAUCACCCAUGUAAAACGGCGCAAUGCGCCACCAGAAGGGCCUCCGACCG [Inmadibi] (Eterna round: R96, puzzle: Same State NG 2)', 'MS2 coat protein', 'T'),
  ('GAGUGGAGGAGAGGAUAUACAAUGAUAAUCACAGUAGAAGGUUCUAACAUGAGGAUCACCCAUGUAGGACUAUUCCUGAGAGUU [Parity 50 - Jieux - Same State NG 1] (Eterna round: R96, puzzle: Same State NG 1)', 'MS2 coat protein', 'F'),
  ('CUGAAAUGUCAAGGAUAUCACGUCGAUUAGACGUGAGAAGGUGAUCUGCACAUGAGGAUCACCCAUGUGUUACAUGGAAAUCAG [Brourd''s SSNG1/1-A2 mod 14] (Eterna round: R96, puzzle: Same State NG 1)', 'MS2 coat protein', 'T'),
  ('GGCGAAUAAACAUGAGGAUCACCCAUGUAGCGGAGACGCAAUGAGGAUAUCGAUGGGUUUCCCGUCGAGAAGGCAUGGGUCGCC [JL SSNG3 3.93 mod 1] (Eterna round: R96, puzzle: Same State NG 3)', 'MS2 coat protein', 'T'),
  ('AUUAUUUCAUGAGGAUAUGGCACCUUAUUGGUGCCAGAAGGCAUGUCUAUAAGACAUGAGGAUCACCCAUGUUUAAAUUAUAUA [Eli NG1ss - 90] (Eterna round: R96, puzzle: Same State NG 1)', 'MS2 coat protein', 'T'),
  ('UGGCUCAGACGAGGAUAUGAUCAUGGCGCUUCGGCGCAUACAUGAGGAUCACCCAUGUAAAGUGAUCAGAAGGCGUCUGAGCCA [SSNG2/7-A2] (Eterna round: R96, puzzle: Same State NG 2)', 'MS2 coat protein', 'F'),
  ('UAUCGUUUGAUAGGAUAUCGCUAUACAUGAGGAUCACCCAUGUUUACCACGCUGGUUUUUCAUACCGAGAAGGAUUCUGAUGAA [salish99_SSNG02_r04_004] (Eterna round: R96, puzzle: Same State NG 2)', 'MS2 coat protein', 'F'),
  ('GGUAUCGGCACAGGAUAUGCUAUCCUUUGGGUAGCAGAAGGGUGGAACAUGAGGAUCACCCAUGUGGUGCCAGGGCGUGAGCCC [JL SSNG1 1.88] (Eterna round: R96, puzzle: Same State NG 1)', 'MS2 coat protein', 'T'),
  ('CCGGUUAAUGGAGGAUAUGGAGCCUUAUUGGCUCCAGAAGGCUAAACAUGAGGAUCACCCAUGUUACCGGCGGUCAAUAGACCG [Eli NG1ss - 61] (Eterna round: R96, puzzle: Same State NG 1)', 'MS2 coat protein', 'F');

----------
# Tested on: K4 kissing-loop RNA reporter;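 also: bound reporter read as fluorescence of individual clusters on recovered sequencing chips by microscopy, with normalized cluster intensities fitted with a binding model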
# method: apparent KD of K4 kissing-loop reporter; higher = weaker reporter binding
# study_conditions: Eterna round: R107; input ligand: FMN 200 uM
Values of apparent KD of K4 kissing-loop reporter greater than or equal to 300 nM map to label 1; values below map to label 0.

INSERT INTO results (input_sequence, label_value) VALUES
  ('UGUAUGUGAUUUGAUACCAGACCAGCUGGUGGUACCUGAGUGAUGUUCGGGAUGGUUUGGGUCCCUUGGCAGCAAAUCGCAUACU [KL-SSTheoB20]', 'label 0'),
  ('UUACAGCCCAGUGAUGUUGGGUAGCGGCGGCGAGGACCGGUACGGCCGCCACUCGGCGCACAGGCGGAGUGAUGUUUUGCUUAAA [Same State Tryptophan A GF 11]', 'label 1'),
  ('AGAGUCGGCUGUGAUACCAGUCGUAUUACAACAUGUCGCAGUGAUGUUGCGAGAUAGGAUGACCCUUGGCAGCACUCAGUACGAU [Same State Theophylline B GF 8]', 'label 1'),
  ('CCGGGCGGCCGAAGGAGCGGGCGGGCCCGAGUGAUGUUCGGGUGGACCGUGAGGUCCGGUGCCCAGGUAGGUCGCGGUUCCGCCC [#2 Same State - Arginine B Attempt #7 (HarryS)]', 'label 0'),
  ('UUAGCUCUAUAGAGCAAGAGGUAUACUGAUACCAGAGGCUAUAGCCUCCCUUGGCAGCGGAACGAGUGAUGUUCGAAACCUCAUU [AK5 SS Theophylline A]', 'label 1'),
  ('GUUACGCAUGGAAGGAGCGCACUCCGAUUGGGCGACGCAGUGAUGUUGUGGUUCGUUCGAAUGCAGGUAGGUCGCCAUGUGUAAC [Ex Arginine B K4 21]', 'label 0'),
  ('AGUUCAGAGUGACUCGAUAAGAGUCACAAACGAGGACCGGUACGGCCGCCACUCGAAAUAACGAGAGUGAUGUUCUCGCUGGGCA [FiskerMod 2 - Jieux - Same State Tryptophan A]', 'label 1'),
  ('GUGGAAUUAUGAAAGUGGUUUUAUAAGGAAGGAGCGGCCGAAAGGCCAGGUAGGUCGCCUAUUGACAGUGAUGUUGUUAUAUGGA [#13]', 'label 0'),
  ('AACGACUGGAUGAAUAACAUCUAGUCGAUUCGAGGACCGGUACGGCCGCCACUCGAGCUAACUGCGAGUGAUGUUCGAUAAUAAA [#OpenEnded 3]', 'label 1');

----------
// reported apparent KD of MS2 coat protein for each item listed
# Test system: MS2 coat protein
# method: apparent KD of MS2 coat protein; designed switch direction (-1 OFF switch, 1 ON switch): 1; higher = weaker reporter binding
# study_conditions: Eterna round: R95; input ligand: none
assay_endpoint: apparent KD of MS2 coat protein

INSERT INTO results (input_sequence, assay_endpoint, observed_measurement) VALUES
  ('AGUCCAGCAUGAGCUGGACAAAAGCAUGUACAUGAGGAUCACCCAUGUCAUGUACAAGCUUUUUGCUCGUCUUAAUA [Mat - hsa-mir-208a - Mod of JL - D35] (puzzle: Sensor for hsa-mir-208a)', 'apparent KD of MS2 coat protein', '534 nM'),
  ('UACAAUCUAUCUGAGGAUAUCAUGAUUUUAACAUGAGGAUCACCCAUGUGCAGGAAAACUGCAUAUGAGAAGGCAGAUAGAUUGU [salish99_ss2_r3_070] (puzzle: Same State 2)', 'apparent KD of MS2 coat protein', '178 nM'),
  ('GUAAUACAUGAGGAUCACCCAUGUCAAUGUAGUCGAGGAUAUGGGUAGCUAUGUGGCUUACUAGAAGGCGACGAGC [Same State 1 - Mod of Vinnie Teenbexe v.4] (puzzle: Same State 1)', 'apparent KD of MS2 coat protein', '251 nM');
